// data source = PubChem BioAssay (NCI)

Below: a set of entries, each annotated with reported growth inhibition.
assay name: NCI Yeast Anticancer Drug Screen. Data for the sgs1 mgt1 strain (AID 161);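 also: 0% = growth of cultures given vehicle only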
stated conditions: S. cerevisiae sgs1 mgt1 strain, at 50.0 µM, active compounds read high
Compounds without any hit were thinned out: in the full panel of roughly 79,000, 15% have a hit.
Note: unit % is implicit; provide only the numeric part.

| compound | property name | recorded measurement |
| --- | --- | --- |
| [Cl][Pt+2][Cl].[NH-]c1cccc(C(F)(F)F)c1.[NH-]c1cccc(C(F)(F)F)c1 | growth inhibition | -6.35 |
| O=C(Nc1cccc(Cl)c1)OC1C=CCC1 (centres undefined) | growth inhibition | 2.65 |

Please report the measured growth inhibition for CC(=O)OCC12CCC(C)=CC1O[C@H]1[C@@H](OC(C)=O)[C@H](OC(C)=O)[C@]2(C)[C@@]12CO2 (some centres undefined) -19.6

Supply measured growth inhibition of O=C(CN1CCN(c2ccccc2)CC1)n1nnc2ccccc21 in your reply. -3.6

Please list growth inhibition recorded for the compound N#CC1CCCC[N-]1.[NH-]CC[N-]CC[NH-].[Pt+4] (centres undefined) 53.6

For the compound CCCCCCCCCCCCCCCC[Si](Cl)(Cl)Cl , give its measured growth inhibition value. -5.85

Item O=[N+]([O-])c1cc2c3c(cccc3c1O)CC2 : provide growth inhibition -4

Tell us which growth inhibition value is on record for CC(=O)CC1CCCC1 19.9

Tell me measured growth inhibition for CC(=O)OCC1OC(OCC(OC(C)=O)C(OC(C)=O)C(OC(C)=O)c2cnn(-c3ccccc3)n2)C(OC(C)=O)C(OC(C)=O)C1OC(C)=O (centres undefined) please. 2.65

Report growth inhibition, nothing else, for this compound: O=S(=O)(c1ccccc1)C1CCCCC1I (centres undefined) 21.4

Annotate the compound c1ccc2c(c1)C(=NOc1nc3ccccc3c3ccccc13)c1ccccc1-2 with its measured growth inhibition. 8.75

Please list growth inhibition recorded for the compound COC(=O)/C=C/c1ccc(OC)c(OC)c1 13.6

Retrieve growth inhibition measured for CN(C)OC(=O)Nc1cccc([N+](=O)[O-])c1 and print it. 14.1

Give the reported growth inhibition for this compound. NC(=O)c1nnn(Cc2ccccc2)c1C(N)=O 12.6

Give the measured growth inhibition for C1CSCCSCCSCCS1 -0.85
